src = patent US4347254A

Listing: minimal effective concentration of selected compounds
# Tested on: Influenza A/PR/8/34 (HO,Nl) strain
# assayName: microbe, parasite or virus in culture
# Type: cell-based, Influenza A virus
# conditions: Influenza A virus, PR/8, 72 h; […]; MDCK cells, 34° C., 3 days; hydrochloride; read-out: MEC (minimum effective concentration)
quantityName: minimal effective concentration (µg/mL)

1) NC1C2CC3COC1C3C2 (centres unmarked) [Compound No. 44-3, 2-Amino-4-oxa-brendane]; 50
2) CN(C)CC12COC3CC(CCC31)C2 (centres unmarked) [Compound No. 41-5]; 50
3) N[C@H]1[C@H]2CC[C@H]3[C@@H]1CO[C@H]3C2 (relative stereo) [Compound No. 12-9, 5-Oxa-exo-2-amino-isotwistane]; 50
4) NCC12CSC3CC(CCC31)C2 (centres unmarked) [Compound No. 53-1]; 12.5
5) CC(N)C12COC3CC(CCC31)C2 (stereo not drawn) [Compound No. 44-1, 5-oxa-3-(α-aminoethyl)-isotwistane]; 25
6) N[C@@H]1[C@H]2CC[C@H]3[C@@H]1CO[C@H]3C2 (relative stereo) [Compound No. 12-4, 5-Oxa-endo-2-amino-isotwistane]; 50
7) NC[C@@H]1[C@H]2CC[C@H]3[C@@H]1CO[C@H]3C2 (relative stereo) [Compound No. 25-3, 5-Oxa-endo-2-aminomethyl-isotwistane]; 25
8) NCC12CSC3CC(CC31)C2 (centres unmarked) [Compound No. 49-1, 5-thia-3-aminomethyl-brendane]; 25
9) NCCCC12COC3CC(CCC31)C2 (centres unmarked) [Compound No. 27-4, 5-Oxa-3-(ω-amino-n-propyl)-isotwistane]; 25
10) CNC12COC3CC(CCC31)C2 (centres unmarked) [Compound No. 18-2, 5-Oxa-3-N-methylamino-isotwistane]; 50
11) NCC1C2CCC3C(COC13)C2 (centres unmarked) [Compound No. 12-10]; 25
12) NC[C@H]1[C@H]2CC[C@H]3[C@@H]1CO[C@H]3C2 (relative stereo) [Compound No. 67-1, exo-2-aminomethyl-5-oxa-isotwistane]; 25
13) NC12CC3CC(CC(C3)C1)C2 [Amantadine, reference compound]; 12.5
14) NC12COC3CC(CCC31)C2 (centres unmarked) [Compound No. 12-3, 5-Oxa-3-amino-isotwistane]; 50
15) NC1C2CCC3C(COC13)C2 (centres unmarked) [Compound No. 44-4, 2-Amino-4-oxa-isotwistane]; 100
16) CN[C@@H]1[C@H]2CC[C@H]3[C@@H]1CO[C@H]3C2 (relative stereo) [Compound No. 18-3, 5-Oxa-endo-2-N-methylamino-isotwistane]; 50
17) NCC12COC3CC(CCC31)C2 (centres unmarked) [Compound No. 27-2, 5-Oxa-3-aminomethyl-isotwistane]; 25
